tested-system: recombinant human GR (Homo sapiens, UniProt P04150)
Construct: purchased Panvera/Invitrogen P2812 (kit P2893)
Sequence (P04150 whole entry): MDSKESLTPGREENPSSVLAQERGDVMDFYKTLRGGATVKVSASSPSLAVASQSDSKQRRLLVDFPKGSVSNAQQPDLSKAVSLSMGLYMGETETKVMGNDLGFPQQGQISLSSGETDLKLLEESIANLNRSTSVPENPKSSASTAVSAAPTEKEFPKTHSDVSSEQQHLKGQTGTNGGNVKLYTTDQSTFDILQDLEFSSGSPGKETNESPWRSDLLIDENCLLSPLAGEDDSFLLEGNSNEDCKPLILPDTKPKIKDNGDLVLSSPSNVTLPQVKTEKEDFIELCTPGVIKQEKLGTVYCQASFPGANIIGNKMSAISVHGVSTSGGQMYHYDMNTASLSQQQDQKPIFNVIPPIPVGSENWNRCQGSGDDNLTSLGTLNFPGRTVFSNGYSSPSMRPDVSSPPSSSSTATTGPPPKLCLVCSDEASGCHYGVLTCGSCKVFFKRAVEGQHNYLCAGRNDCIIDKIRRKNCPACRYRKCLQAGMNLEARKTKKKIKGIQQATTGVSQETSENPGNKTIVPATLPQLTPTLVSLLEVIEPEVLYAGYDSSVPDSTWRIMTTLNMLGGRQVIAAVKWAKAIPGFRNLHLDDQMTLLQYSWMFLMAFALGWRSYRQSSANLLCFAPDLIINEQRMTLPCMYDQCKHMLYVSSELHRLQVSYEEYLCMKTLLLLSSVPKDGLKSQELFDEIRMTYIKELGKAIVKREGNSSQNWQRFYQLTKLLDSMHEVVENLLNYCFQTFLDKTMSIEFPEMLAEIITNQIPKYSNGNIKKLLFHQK
assay-summary: Human Glucocorticoid Receptor (GR) fluorescence polarization binding assay (GRhuFL_FP_v2)
stated-conditions: GS Red tracer, 2 hours at room temperature, 100% control 10 μM Dexamethasone, read-out: GRhuFL_FP_v2 (GR-binders) IC50
Protocol: Human Glucocorticoid Receptor (GR) Assay The assay is based on a commercial kit from Panvera/Invitrogen (Part number P2893). The assay technology is fluorescence polarization. […] The GR and Stabilizing Peptide reagents are stored at −70° C. while the GS Red is stored at −20° C. Also included in the kit are 1M DTT (Panvera, Part number P2325, stored at −20° C.) and GR Screening buffer 10× (Panvera, Part number P2814, stored at −70° C. initially but once thawed stored at room temperature). […]

- smiles: "Cc1nn(C2CCCC2)c(C)c1S(=O)(=O)N[C@H]1CCN(c2cccc3c2cnn3-c2ccc(F)cc2)C1"
  IC50: "120 nM"
- smiles: "Cc1cc(C)c(S(=O)(=O)N[C@H]2CCN(c3cccc4c3cnn4-c3ccc(F)nc3)C2)c(C)c1"
  IC50: "38 nM"
- smiles: "Cc1cc(C)c(S(=O)(=O)N[C@H]2CCN(c3cccc4ncccc34)C2)c(C)c1"
  IC50: "48 nM"
- smiles: "O=S(=O)(N[C@H]1CCN(c2cccc3ncccc23)C1)c1c(Cl)cc(Cl)cc1Cl"
  IC50: "17 nM"
- smiles: "O=S(=O)(N[C@H]1CCN(c2cccc3c2cnn3-c2ccc(F)nc2)C1)c1c(Cl)cc(Cl)cc1Cl"
  IC50: "19 nM"
- smiles: "O=S(=O)(N[C@H]1CCN(c2cccc3c2cnn3-c2ccc(F)cc2)C1)c1c(Cl)cc(Cl)cc1Cl"
  IC50: "25 nM"
- smiles: "Cc1cc(Cl)cc(Cl)c1S(=O)(=O)N[C@H]1CCN(c2cccc3ncccc23)C1"
  IC50: "26 nM"
- smiles: "Cc1cc(Cl)cc(Cl)c1S(=O)(=O)N[C@H]1CCN(c2cccc3c2cnn3-c2ccc(F)nc2)C1"
  IC50: "25 nM"
